- Target Of Assay: UniProtKB P0A6K3
- Sequence (P0A6K3 whole entry, looked up): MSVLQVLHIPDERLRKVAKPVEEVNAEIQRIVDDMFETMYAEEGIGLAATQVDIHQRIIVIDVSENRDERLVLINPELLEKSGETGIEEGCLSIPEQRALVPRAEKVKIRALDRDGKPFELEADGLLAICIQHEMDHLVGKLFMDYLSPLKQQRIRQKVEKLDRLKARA
- Test Summary: Compound was evaluated for inhibition of peptide deformylase, PDF.Ni of Escherichia coli
Value Type: Ki
Put down the number, then write its unit next to it.

The reported value for CCCCC(CS)C(=O)NC(CCCNC(=N)N)C(=O)OC (stereo unspecified) in terms of Ki is 2500 nM

Hello, the source for this data is BindingDB's records for doi:10.1016/s0960-894x(02)00790-4, in case you need it.
